assay: Cysteine reactivity probe assay (HPLC); design: unit not given here; conditions: cysteine in phosphate buffer pH 7.4, HPLC; unit not given
Recorded Metric: Cysteine reactivity

NS(=O)(=O)c1ncc(C(=O)c2ccccc2)s1 [5-Benzoyl-2-thiazole sulfonamide]	reactive
CC[S+]([O-])c1cnc(S(N)(=O)=O)s1 (centres unmarked) [5-Ethylsufinyl-2-thiazole sulfonamide, 5-Ethylsulfinyl-2-thiazole sulfonamide]	reactive
NS(=O)(=O)c1ncc(S(=O)(=O)c2ccccc2)s1 [5-Phenylsulfonyl-2-thiazole sulfonamide]	reactive
NS(=O)(=O)c1ncc(Cl)s1 [5-Chloro-2-thiazole sulfonamide]	0.00002

Please supply Cysteine reactivity for each of the following items, keeping them in order.
1. NS(=O)(=O)c1cnc(C(=O)C2CC2)s1
2. CN1CCN(S(=O)(=O)c2ncc(S(N)(=O)=O)s2)CC1
3. NS(=O)(=O)c1cnc([S+]([O-])c2ccccc2)s1 (centres unmarked) [2-Phenylsulfinyl-5-thiazole sulfonamide]
4. CCSc1cnc(S(N)(=O)=O)s1 [5-(Ethylthio)-2-thiazole sulfonamide]
5. CCCCC#Cc1ncc(S(N)(=O)=O)s1 [2-(1-Hexynyl)-5-thiazole sulfonamide]
6. NS(=O)(=O)c1ncc(Sc2ccccc2)s1 [5-(Phenylthio)-2-thiazole sulfonamide]
7. NS(=O)(=O)c1cnc(S(=O)(=O)c2ccccc2)s1 [2-Phenylsulfonyl-5-thiazole sulfonamide]
8. Cc1sc(S(N)(=O)=O)nc1-c1ccccc1 [5-Methyl-4-phenyl-2-thiazole sulfonamide]

< 0.000024
reactive
reactive
0.000024
0.001
0.005
reactive
N.R.

###

# (Homo sapiens, UniProt P00918): pIC50 values follow
Give bare numbers, as −log10 of the molar value.

Example results:
CC(C)(C)NS(=O)(=O)c1ncc(S(N)(=O)=O)s1	8.28
CN(C)CCN(C)S(=O)(=O)c1ncc(S(N)(=O)=O)s1	7.84
CCOC(=O)c1csc(S(N)(=O)=O)n1 [4-Carboethoxy-2-thiazole sulfonamide, 4-carboethoxy-2-thiazole sulfonamide]	7.11

Please supply pIC50 for each of the following items, keeping them in order.
1. COc1ccc(-c2csc(S(N)(=O)=O)n2)cc1
2. NS(=O)(=O)c1nccs1 [2-Thiazole sulfonamide]
3. CCCCC#Cc1ncc(S(N)(=O)=O)s1 [2-(1-Hexynyl)-5-thiazole sulfonamide]

7.48
7.21
8.11

###

# (Homo sapiens, UniProt P00918): IC50 values follow
One number for each entry, in nM.

Example results:
NS(=O)(=O)c1ncc(C(=O)c2ccccc2)s1 [5-Benzoyl-2-thiazole sulfonamide]	5
NS(=O)(=O)c1ncc(Sc2ccccc2)s1 [5-(Phenylthio)-2-thiazole sulfonamide]	2.7
NS(=O)(=O)c1cnc(Sc2ccccc2)s1 [2-Phenylthio-5-thiazole sulfonamide, 2-Thiophenyl-5-thiazole sulfonamide]	5.5

Here is the next item to consider.
Record NS(=O)(=O)c1cnc([S+]([O-])c2ccccc2)s1 (stereo not shown) [2-Phenylsulfinyl-5-thiazole sulfonamide] : what is its IC50 with (Homo sapiens, UniProt P00918)?
12.7

###

test: Cysteine reactivity probe assay (HPLC); parameters: unit not given here; conditions: cysteine in phosphate buffer pH 7.4, HPLC; unit not given
Recorded Metric: Cysteine reactivity

Example results:
CCCCOc1ncc(S(N)(=O)=O)s1 [2-(1-Butoxy)-5-thiazole sulfonamide]	< 0.00005
CCOC(=O)c1csc(S(N)(=O)=O)n1 [4-Carboethoxy-2-thiazole sulfonamide, 4-carboethoxy-2-thiazole sulfonamide]	< 0.000005
NS(=O)(=O)c1cnc(Sc2ccccc2)s1 [2-Phenylthio-5-thiazole sulfonamide, 2-Thiophenyl-5-thiazole sulfonamide]	N.R.
CC(=O)OCCCC(=O)c1cnc(S(N)(=O)=O)s1	reactive
CCSc1ncc(S(N)(=O)=O)s1 [2-(Ethylthio)-5-thiazole sulfonamide, 2-Ethylthio-5-thiazole sulfonamide]	< 0.0000024
CCCCC#Cc1cnc(S(N)(=O)=O)s1 [5-(1-Hexynyl)-2-thiazole sulfonamide]	0.00019

Please supply Cysteine reactivity for each of the following items, keeping them in order.
1. CN(C)CCN(C)S(=O)(=O)c1ncc(S(N)(=O)=O)s1
2. NS(=O)(=O)c1nccs1 [2-Thiazole sulfonamide]
3. Cc1csc(S(N)(=O)=O)n1 [4-Methyl-2-thiazole sulfonamide]
4. CCCCCC(=O)c1ncc(S(N)(=O)=O)s1 [2-Hexanoyl-5-thiazole sulfonamide, 2-(1-Hexanoyl)-5-thiazole sulfonamide]
5. CCS(=O)(=O)c1ncc(S(N)(=O)=O)s1 [2-(Ethylsulfonyl)-5-thiazole sulfonamide, 2-Ethylsulfonyl-5-thiazole sulfonamide]

reactive
N.R.
0.00005
0.00007
reactive
